Target of assay: Fes (UniProt P07332)
Sequence (P07332 whole entry, looked up): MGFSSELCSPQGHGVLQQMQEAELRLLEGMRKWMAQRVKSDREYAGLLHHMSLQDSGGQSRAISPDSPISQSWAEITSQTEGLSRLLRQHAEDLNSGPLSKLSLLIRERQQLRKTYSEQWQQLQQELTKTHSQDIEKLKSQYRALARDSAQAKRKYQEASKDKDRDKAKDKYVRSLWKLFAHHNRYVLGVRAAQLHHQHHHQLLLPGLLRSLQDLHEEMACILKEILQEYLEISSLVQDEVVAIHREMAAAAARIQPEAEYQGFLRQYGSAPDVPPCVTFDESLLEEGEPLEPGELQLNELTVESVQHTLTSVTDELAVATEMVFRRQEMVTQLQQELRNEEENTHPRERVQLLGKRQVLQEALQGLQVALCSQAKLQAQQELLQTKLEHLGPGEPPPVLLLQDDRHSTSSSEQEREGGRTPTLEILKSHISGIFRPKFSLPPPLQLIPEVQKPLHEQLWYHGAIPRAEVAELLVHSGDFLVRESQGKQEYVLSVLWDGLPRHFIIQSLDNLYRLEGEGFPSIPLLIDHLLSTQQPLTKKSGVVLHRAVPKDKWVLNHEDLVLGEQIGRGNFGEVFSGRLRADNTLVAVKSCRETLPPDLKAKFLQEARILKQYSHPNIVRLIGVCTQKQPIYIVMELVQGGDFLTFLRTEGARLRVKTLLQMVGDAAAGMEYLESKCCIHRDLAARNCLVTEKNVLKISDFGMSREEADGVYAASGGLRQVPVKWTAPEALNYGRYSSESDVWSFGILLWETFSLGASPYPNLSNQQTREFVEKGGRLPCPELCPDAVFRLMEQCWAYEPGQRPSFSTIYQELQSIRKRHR
Test description: phosphorylation enrichment, bacterial display (enrichment ratio); higher = better substrate or ligand; peptides without Tyr show the background;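 also: 11-residue human phosphosite peptides and single-mutation variants displayed on the E. coli surface, counted by deep sequencing, each peptide's frequency after selection divided by its frequency in the unselected input library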;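 also: frequency after pTyr selection over input frequency; kinase dosed for 20-30% of maximal phosphorylation in three min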
Measured metric: phosphorylation enrichment
In your answer, state the number alone without any accompanying words.

# count of solved cases: 3
Chain | Measured metric | Value measured
KKLEVYQSIAD [MYBPC3_Y548] | phosphorylation enrichment | 0.882
RVLQLYGCSPS [ASTL_Y279_K277Q] | phosphorylation enrichment | 1.72
GRERPYGGGGG [FUS_Y526_R521G] | phosphorylation enrichment | 0.565

WAFNLYDINKD [KCNIP3_Y174] has a reported phosphorylation enrichment of 1.45
